Tested on: E. Coli ATCC 25922
Test: Test for evaluating antibacterial activity (E. coli), broth microdilution MIC
Type: cell-based
Settings: Escherichia coli, ATCC25922; 35° C., 18 hours, cation-adjusted Mueller-Hinton medium
property-name: MIC

// known answers, use as guide
O=C(O)c1ccc(NC(=O)c2cc3cccc(O)c3[nH]c2=O)cc1 : > 32 µg/mL
CNc1cccc2cc(C(=O)NCc3csc(NC(=O)OC(C)(C)C)n3)c(=O)[nH]c12 : > 8 µg/mL
CNc1cc(F)cc2c(NCC3CNC3)c(C(=O)Nc3ccc(C(=O)O)cc3)c(=O)[nH]c12.O=CO : > 16 µg/mL
CNc1cccc2cc(C(=O)Nc3cnc(N4CCC(N)(C(=O)O)CC4)nc3)c(=O)[nH]c12.Cl : > 8 µg/mL
CNc1cc(F)cc2c(O)c(C(=O)Nc3ccc(C(=O)O)cc3CN3CCC3)c(=O)[nH]c12.O=CO : 32 µg/mL

Param item: "CNc1cc(F)cc2cc(C(=O)Nc3ccc(C(=O)O)cc3N(C)C3CCCCC3)c(=O)[nH]c12" ; param system: E. Coli ATCC 25922; output MIC: > 32 µg/mL

Param item: "CNc1cc(F)cc2nc(C(=O)Nc3ccc(C(=O)O)cc3CN(C)C3CCCCC3)c(=O)[nH]c12" ; param system: E. Coli ATCC 25922; output MIC: > 64 µg/mL

Param item: "CNc1cc(F)cc2cc(C(=O)Nc3cnc(N4CC(N)C4)nc3)c(=O)[nH]c12.O=CO" ; param system: E. Coli ATCC 25922; output MIC: > 32 µg/mL

* * *

Biological target: E. coli DNA gyrase (Escherichia coli, UniProt P0AES6)
Construct: made in house; host or cells: E. coli BL21 (DE3)
Test: Test for evaluating the activity of inhibiting E. coli DNA gyrase enzyme (Method 1, supercoiling, Inspiralis enzyme)
Format: biochemical
Details: Method 1; read-out: E. Coli Gyrase supercoiling IC50
Experimental: Test Example 1-1 Test for Evaluating the Activity of Inhibiting E. coli DNA Gyrase Enzyme (Method 1) The enzymatic activity of E. coli DNA gyrase was measured by a method comprising reacting DNA gyrase and its substrate, relaxed pBR322 (Inspiralis), in the presence of ATP and detecting the post-reaction supercoiled pBR322/relaxed pBR322 ratio with H19 (Profoldin). […]
Structures can show the parent of a compound that is named as a salt.
Listed molecules paired with reported IC50
Answer with the value and then the unit.

CNc1cccc2cc(C(=O)NC3CCN(c4nccs4)C3)c(=O)[nH]c12 (centres unmarked) : 0.697 µM
CNc1cc(F)cc2cc(C(=O)Nc3cnc(OCCN4CCOCC4)nc3)c(=O)[nH]c12 : 0.0025 µM
CNc1cccc2cc(C(=O)Nc3ccc(C(=O)NCCC[C@H](N)C(=O)O)cc3)c(=O)[nH]c12 : 0.0204 µM
CNc1cccc2cc(C(=O)NCCc3cccnc3)c(=O)[nH]c12 : 0.216 µM
CNc1cccc2cc(C(=O)Nc3cncnc3)c(=O)[nH]c12 : 0.0211 µM
CNc1cc(F)cc2cc(C(=O)Nc3ccc(C(=O)O)c(OCCN4CCN(C)CC4)c3)c(=O)[nH]c12 [Example 54, hydrochloride] : 0.0019 µM
CNc1cc(F)cc2cc(C(=O)Nc3ccccc3CN(C)C3CCCCC3)c(=O)[nH]c12 : 0.00247 µM
CNc1cccc2cc(C(=O)Nc3ccccc3)c(=O)[nH]c12 : 0.245 µM

// sample "CNc1cc(F)cc2cc(C(=O)Nc3ccccc3)c(=O)[nH]c12" , its IC50 was 0.249 µM

// sample "CNc1cccc2cc(C(=O)Nc3cnc(N4CCC(N5CCN(CCO)CC5)CC4)nc3)c(=O)[nH]c12" , its IC50 was 0.0736 µM

// sample "CNc1cccc2cc(C(=O)Nc3ccc(C(=O)NCCN4CCOCC4)cc3)c(=O)[nH]c12" , its IC50 was 0.0178 µM

// sample "CNc1cccc2cc(C(=O)NCCc3cn4cccnc4n3)c(=O)[nH]c12" , its IC50 was 0.0282 µM

// sample "CNc1cccc2cc(C(=O)NCc3ccc(C(=O)O)cc3C)c(=O)[nH]c12" , its IC50 was 0.0301 µM

// sample "CNc1cc(F)cc2cc(C(=O)NCCc3cccnc3)c(=O)[nH]c12" , its IC50 was 0.0447 µM

// sample "CNc1cccc2cc(C(=O)Nc3cnc(C(=O)O)nc3)c(=O)[nH]c12" , its IC50 was 0.00119 µM

// sample "CNc1cc(F)cc2cc(C(=O)NCCc3ccccn3)c(=O)[nH]c12" , its IC50 was 0.175 µM

// sample "CNc1cc(F)cc2cc(C(=O)Nc3cnccc3C)c(=O)[nH]c12" , its IC50 was 0.023 µM

* * *

Target: E. coli topoisomerase IV (Escherichia coli, UniProt P20083)
Construct: purchased Inspiralis
Sequence (P20083 whole entry): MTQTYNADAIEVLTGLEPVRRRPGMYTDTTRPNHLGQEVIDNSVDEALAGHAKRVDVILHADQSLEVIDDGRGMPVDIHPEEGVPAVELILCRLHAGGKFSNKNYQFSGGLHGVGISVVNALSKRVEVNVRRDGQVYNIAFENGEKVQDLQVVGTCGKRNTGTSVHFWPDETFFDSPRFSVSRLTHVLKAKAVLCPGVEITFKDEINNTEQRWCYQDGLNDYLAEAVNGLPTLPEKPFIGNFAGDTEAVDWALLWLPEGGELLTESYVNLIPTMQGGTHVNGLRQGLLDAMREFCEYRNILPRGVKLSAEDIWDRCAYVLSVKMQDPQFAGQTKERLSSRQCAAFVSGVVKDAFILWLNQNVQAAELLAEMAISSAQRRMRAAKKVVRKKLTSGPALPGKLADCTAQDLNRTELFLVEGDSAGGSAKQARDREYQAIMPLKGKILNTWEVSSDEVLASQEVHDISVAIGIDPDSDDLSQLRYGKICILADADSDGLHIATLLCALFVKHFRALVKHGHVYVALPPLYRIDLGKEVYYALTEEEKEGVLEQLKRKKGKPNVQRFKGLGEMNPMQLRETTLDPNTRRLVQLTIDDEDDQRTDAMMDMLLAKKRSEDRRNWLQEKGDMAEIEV
Sequence (P0AFI2 whole entry, further chain): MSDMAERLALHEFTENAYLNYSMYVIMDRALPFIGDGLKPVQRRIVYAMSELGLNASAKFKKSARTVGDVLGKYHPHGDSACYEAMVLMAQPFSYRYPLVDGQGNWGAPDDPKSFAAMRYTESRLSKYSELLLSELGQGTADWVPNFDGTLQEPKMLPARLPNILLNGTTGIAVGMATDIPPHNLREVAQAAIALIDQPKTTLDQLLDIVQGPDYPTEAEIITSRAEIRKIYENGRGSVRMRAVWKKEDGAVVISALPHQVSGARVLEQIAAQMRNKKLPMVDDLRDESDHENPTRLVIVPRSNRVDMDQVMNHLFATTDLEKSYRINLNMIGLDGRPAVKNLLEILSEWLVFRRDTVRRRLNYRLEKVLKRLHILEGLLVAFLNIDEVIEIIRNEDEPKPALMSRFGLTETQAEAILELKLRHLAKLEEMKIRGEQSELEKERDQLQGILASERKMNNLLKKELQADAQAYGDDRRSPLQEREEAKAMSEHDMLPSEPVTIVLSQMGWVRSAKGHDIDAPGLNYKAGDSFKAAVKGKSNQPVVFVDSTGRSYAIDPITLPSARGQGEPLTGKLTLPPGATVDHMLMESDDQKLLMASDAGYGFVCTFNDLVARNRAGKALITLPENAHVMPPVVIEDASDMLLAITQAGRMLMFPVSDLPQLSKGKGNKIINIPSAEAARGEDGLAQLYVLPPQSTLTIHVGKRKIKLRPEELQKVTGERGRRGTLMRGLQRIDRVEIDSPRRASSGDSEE
Assay: Test for evaluating the activity of inhibiting E. coli topoisomerase IV enzyme (relaxation)
Type: biochemical
Structures can show the parent of a compound that is named as a salt.
Listed molecules paired with reported pIC50
Conceptually, pIC50 converts a concentration in mol/L into minus its log10.

CCCCCN(C)Cc1cc(C(=O)O)ccc1NC(=O)c1cc2cc(F)cc(NC)c2[nH]c1=O : 7.38
CNc1cc(F)cc2c(NCC3CCNC3)c(C(=O)Nc3ccc(C(=O)O)cc3)c(=O)[nH]c12.O=CO (stereo not drawn) : 6.80
CNc1cc(F)cc2cc(C(=O)Nc3ccc(C(=O)O)cc3CN3CCCCC3)c(=O)[nH]c12 : 7.82
CNc1cc(F)cc2cc(C(=O)Nc3ccc(C(=O)O)cc3CN(C)C)c(=O)[nH]c12 : 6.75
CNc1cc(F)cc2c(O)c(C(=O)Nc3ccc(C(=O)NS(=O)(=O)N(C)C)cc3)c(=O)[nH]c12 : 6.90
CNc1cc(F)cc2cc(C(=O)Nc3ccc(C(=O)O)cc3CN(C)C3CCCCC3)c(=O)[nH]c12 [Example 70, hydrochloride] : 7.32
CNc1cc(F)cc2cc(C(=O)Nc3ccc(C(=O)O)cc3)c(=O)[nH]c12 : 6.66
CNc1cc(F)cc2c(O)c(C(=O)Nc3ccc(C(=O)O)cc3CN3CCCCC3)c(=O)[nH]c12.O=C(O)C(F)(F)F : 5.31

Proceeding to the next molecule to report its pIC50.
// sample CNc1cc(F)cc2cc(C(=O)Nc3ccc(C(=O)O)cc3CN(CCO)C3CCCCC3)c(=O)[nH]c12.Cl [Example 104, hydrochloride] , its pIC50 was 7.63

* * *

Listed molecules paired with reported pIC50
Target: E. coli DNA gyrase (Escherichia coli)
Construct: made in house; host or cells: E. coli BL21 (DE3)
Experiment: Test for evaluating the activity of inhibiting E. coli DNA gyrase enzyme (Method 2, supercoiling, recombinant gyrA/gyrB complex)
Format: biochemical
Settings: Method 2; read-out: E. Coli Gyrase supercoiling IC50
Conceptually, pIC50 converts a concentration in mol/L into minus its log10.

CNc1cc(F)cc2c(O)c(C(=O)Nc3ccc(C(=O)NS(=O)(=O)N(C)C)cc3CN3CCCCC3)c(=O)[nH]c12 : 8.35
CNc1cccc2cc(C(=O)NCCc3nc(O)cc(O)n3)c(=O)[nH]c12 : 7.60
CNc1cccc2cc(C(=O)Nc3ccc(C(=O)NC(CO)CO)cc3)c(=O)[nH]c12 : 5.33
CNc1cc(F)cc2cc(C(=O)Nc3ccc(C(=O)O)cc3CN(CC(=O)O)C3CCCCC3)c(=O)[nH]c12 : 9.24
CNc1cc(F)cc2c(O)c(C(=O)Nc3ccc(C(=O)O)cc3)c(=O)[nH]c12 : 8.96

// sample "CNc1cc(F)cc2cc(C(=O)Nc3nccn3C)c(=O)[nH]c12" , its pIC50 was 5.98

// sample "CNc1cc(F)cc2c(O)c(C(=O)Nc3ccc(C(=O)NS(C)(=O)=O)cc3)c(=O)[nH]c12" , its pIC50 was 8.76

// sample "CNc1cc(F)cc2c(O)c(C(=O)Nc3ccc(C(=N)N)cc3)c(=O)[nH]c12" , its pIC50 was 7.05

// sample "CNc1cncc2cc(C(=O)Nc3ccc(C(=O)O)cc3CN(C)C3CCCCC3)c(=O)[nH]c12" , its pIC50 was 8.22

// sample "CNc1cc(F)cc2cc(C(=O)Nc3ccc(C(=O)O)cc3CN(CCCN(C)C)CCCN(C)C)c(=O)[nH]c12" , its pIC50 was 7.53

// sample "CNc1cc(F)cc2cc(C(=O)Nc3ccc(C(=O)O)cc3CCN(C)C3CCCCC3)c(=O)[nH]c12" , its pIC50 was 8.53

// sample "CNc1cc(F)cc2cc(CNc3ccc(C(=O)O)cc3CN(C)C3CCCCC3)c(=O)[nH]c12" , its pIC50 was 6.47

* * *

The following molecules have recorded MIC on E. Coli ATCC 25922.

Param item: "CNc1cc(F)cc2cc(C(=O)Nc3ccccc3CN(CCO)C3CCCCC3)c(=O)[nH]c12" ; param system: E. Coli ATCC 25922; output MIC: 8 µg/mL

Param item: "CNc1cc(F)cc2c(NCC3(N)CCC3)c(C(=O)Nc3ccc(C(=O)O)cc3)c(=O)[nH]c12.O=CO" ; param system: E. Coli ATCC 25922; output MIC: > 32 µg/mL
